- assayExplanation: in vitro
- statedConditions: human, Caco-2
- Description: Efflux ratio of permeability in human Caco2 cells measured up to 2 hrs by LC-MS/MS analysis or scintillation counting method
valueKind: efflux ratio at 2 h

Below, 3 compounds whose answers are already recorded.
# compound, valueKind, testValue
data = [
    ("O=P1(c2ccc(C(F)(F)F)cc2)CCCCC1", "efflux ratio at 2 h", 1.1),
    ("Cc1ccc(NC(=O)c2ccc(C(=O)N(C)C)cc2)cc1Nc1nccc(-c2cccnc2)n1", "efflux ratio at 2 h", 2.2),
    ("O=P1(c2ccc(C(F)(F)F)cc2)CCNCC1", "efflux ratio at 2 h", 1.1),
]

Query: Value lookup for efflux ratio at 2 h; key = `O=P1(c2ccc(C(F)(F)F)cc2)NCCCN1`
Result: 0.7

Query: Try `O=C(O)c1ccc(C(F)(F)F)cc1` next.
Result: 1.3

Query: And `CN1CCP(=O)(c2ccc(C(F)(F)F)cc2)CC1` ?
Result: 0.7

Query: Do the same for `CP(C)(=O)c1ccc(C(F)(F)F)cc1` please
Result: 0.5

Query: Moving on to the next compound: `COP(=O)(OC)c1ccc(C(F)(F)F)cc1`
Result: 0.5

Query: Another: `CCOP(=O)(OCC)c1ccncc1`
Result: 0.7

---

- assayExplanation: in vitro
- statedConditions: human, Caco-2
valueKind: efflux ratio at 2 h
Please state the value as a number alone, without comment.

# compound, efflux ratio at 2 h
data = [
    ("CC(C)P(=O)(c1ccc(C(F)(F)F)cc1)C(C)C", 0.5),
    ("CCOP(C)(=O)c1ccc(C(F)(F)F)cc1 (stereo not drawn)", 1),
]

Now consider a different compound.
Query: Need efflux ratio at 2 h, item `CNC(=O)c1ccc(C(F)(F)F)cc1`
Result: 0.9
